- system_tested: Recombinant human PKC-delta (His-tagged 345-676) (Homo sapiens)
- Construct: PKC-delta (His-tagged 345-676); His
- test_details: PKC-delta inhibition assay (HTRF KinEASE kit)
- Type: biochemical
- condition_notes: ratio, PKC-theta vs PKC-delta HTRF
Decision: PKC-theta/PKC-delta selectivity >= 10 yields 1, all other cases yield -1.

These solved cases illustrate the format of a correct answer.
CCC1(C)C(=O)Nc2nccc(-c3cc(C(F)(F)F)cc(N4CCN[C@@H](C)C4)n3)c21 (stereo partly shown) ... 1
O=c1[nH]c2nccc(-c3cc(Cl)cc(N4CCNCC4)c3)c2[nH]1 ... -1
CC[C@]1(C)C(=O)Nc2nccc(-c3cc(Cl)cc(N4CCNC[C@H]4C)n3)c21 (single isomer, unassigned) ... 1
CC[C@@]1(C)C(=O)Nc2nccc(-c3cc(Cl)cc(N4CCNC[C@H]4C)n3)c21 (single isomer, unassigned) ... -1
CC[C@H]1CN(c2cc(Cl)cc(-c3ccnc4c3[C@@](C)(OC)C(=O)N4)n2)CCN1 (single isomer, unassigned) [Example 152] ... 1

Answer whether PKC-theta/PKC-delta selectivity of CC[C@H]1CN(c2cc(C(F)(F)F)cc(-c3ccnc4c3[C@](C)(O)C(=O)N4)n2)CCN1 (single isomer, unassigned) is greater than or equal to 10.
1

Answer whether PKC-theta/PKC-delta selectivity of C[C@@H]1CNCCN1c1cc(Cl)cc(-c2ccnc3c2[C@](C)(O)C(=O)N3)n1 (single isomer, unassigned) is greater than or equal to 10.
-1

====

- system_tested: Recombinant human PKC-theta (His-tagged 362-706) (Homo sapiens)
- Construct: Recombinant human PKC-theta (His-tagged 362-706); His
- Sequence (Q04759 362-706): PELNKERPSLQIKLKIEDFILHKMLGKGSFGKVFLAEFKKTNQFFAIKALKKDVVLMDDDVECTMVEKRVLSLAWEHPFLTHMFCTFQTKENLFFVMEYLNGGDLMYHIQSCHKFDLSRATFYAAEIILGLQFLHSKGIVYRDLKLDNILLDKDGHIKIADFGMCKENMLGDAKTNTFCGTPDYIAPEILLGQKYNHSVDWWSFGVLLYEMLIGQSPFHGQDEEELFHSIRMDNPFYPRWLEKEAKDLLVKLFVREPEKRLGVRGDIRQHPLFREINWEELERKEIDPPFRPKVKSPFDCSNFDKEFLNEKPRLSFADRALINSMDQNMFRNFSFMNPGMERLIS
- test_details: PKC-theta inhibition assay (HTRF KinEASE kit)
- Format: biochemical
- condition_notes: ATP 6.5 μM; STK substrate 525 nM; read-out: PKC-theta HTRF pIC50 (converted)
Simple rule here: IC50 less than 20 nM is Met, otherwise Not met.

These solved cases illustrate the format of a correct answer.
CC[C@H]1CN(c2cc(C(F)(F)F)cc(-c3ccnc4c3[C@](C)(O)C(=O)N4)n2)CCN1 (single isomer, unassigned) ... Met
CC1(O)C(=O)Nc2nccc(-c3cc(C(F)(F)F)cc(N4CCNCC4)n3)c21 (stereo not drawn) ... Met
C[C@@H]1CNCCN1c1cc(Cl)cc(-c2c(F)cnc3c2C(C)(C)C(=O)N3)n1 ... Met
CC1(C)C(=O)Nc2nccc(-c3cc(C(F)(F)F)cc(N4CCNC5(CC5)C4)n3)c21 ... Met
CC[C@H]1CN(c2cc(C(F)(F)F)cc(-c3ccnc4c3[C@](C)(OC)C(=O)N4)n2)CCN1 (single isomer, unassigned) ... Met

Please determine if CC1C(=O)Nc2nccc(-c3cc(F)cc(N4CCNCC4)c3)c21 (stereo not drawn) is below 20 nM in terms of IC50.
Not met

Please determine if C[C@H]1CNCCN1c1cc(-c2ccnc3c2C(C)(C)C(=O)N3)ccn1 is below 20 nM in terms of IC50.
Not met

====

Recorded IC50 values for a group of molecules are listed next.
- system_tested: Recombinant human PKC-theta (His-tagged 362-706) (Homo sapiens)
- Construct: Recombinant human PKC-theta (His-tagged 362-706); His
- test_details: PKC-theta inhibition assay (HTRF KinEASE kit)
- Format: biochemical
- condition_notes: ATP 6.5 μM; STK substrate 525 nM; read-out: PKC-theta HTRF pIC50 (converted)
Report only the number, with the unit nM understood.

As a guide, the following entries are already answered.
CC[C@H]1CN(c2cc(Cl)cc(-c3ccnc4c3C(C)(OC)C(=O)N4)n2)CCN1 (stereo partly shown) [Example 130] ... 7.94
CC1(C)C(=O)Nc2nccc(-c3cc(Cl)cc(N4CCNCC4C(F)F)n3)c21 (stereo not shown) [Example 159] ... 2
CC(F)(F)c1cc(-c2ccnc3c2C(C)(C)C(=O)N3)nc(N2CCCNCC2)c1 [Example 203] ... 6.31

Name the recorded IC50 of the item CC[C@]1(O)C(=O)Nc2nccc(-c3cc(Cl)cc(N4CCN[C@@H](C)C4)n3)c21 (single isomer, unassigned) [Example 163] in your answer.
3.98

====

- system_tested: Recombinant human PKC-delta (His-tagged 345-676) (Homo sapiens, UniProt Q05655)
- Construct: PKC-delta (His-tagged 345-676); His
- Sequence (Q05655 345-676): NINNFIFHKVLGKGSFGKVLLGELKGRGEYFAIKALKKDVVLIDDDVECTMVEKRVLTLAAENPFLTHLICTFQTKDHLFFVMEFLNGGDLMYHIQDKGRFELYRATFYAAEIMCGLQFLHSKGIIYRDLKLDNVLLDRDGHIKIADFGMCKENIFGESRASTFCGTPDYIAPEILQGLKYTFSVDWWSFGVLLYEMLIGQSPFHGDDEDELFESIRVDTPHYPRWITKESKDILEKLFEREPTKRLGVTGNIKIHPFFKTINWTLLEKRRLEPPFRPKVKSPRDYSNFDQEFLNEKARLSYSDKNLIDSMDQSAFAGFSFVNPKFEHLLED
- test_details: PKC-delta inhibition assay (HTRF KinEASE kit)
- Type: biochemical
- condition_notes: ratio, PKC-theta vs PKC-delta HTRF
Recorded PKC-theta/PKC-delta selectivity values for a group of compounds are listed next.

As a guide, the following entries are already answered.
O=C1Nc2nccc(-c3cc(F)cc(N4CCNCC4)c3)c2C12CC2 [Example 34] ... 2
CCC1(O)C(=O)Nc2nccc(-c3cc(C(F)(F)F)cc(N4CCN[C@@H](C)C4)n3)c21 (some centres unmarked) [Example 111] ... 17
CC[C@@]1(C)C(=O)Nc2nccc(-c3cc(C(C)(F)F)cc(N4CCNC[C@H]4C)n3)c21 (single isomer, unassigned) [Example 202] ... 22

Name the recorded PKC-theta/PKC-delta selectivity of the item O=c1[nH]c2nccc(-c3cc(C(F)(F)F)cc(N4CCNCC4)n3)c2[nH]1 [Example 68] in your answer.
11

Name the recorded PKC-theta/PKC-delta selectivity of the item C[C@H]1CNCCN1c1cc(F)cc(-c2ccnc3c2C(C)(O)C(=O)N3)c1 (some centres unmarked) [Example 58] in your answer.
7

====

- system_tested: Recombinant human PKC-delta (His-tagged 345-676) (Homo sapiens, UniProt Q05655)
- Construct: PKC-delta (His-tagged 345-676); His
- test_details: PKC-delta inhibition assay (HTRF KinEASE kit)
- Type: biochemical
- condition_notes: ratio, PKC-theta vs PKC-delta HTRF
Decision: PKC-theta/PKC-delta selectivity >= 10 yields Met, all other cases yield Not met.

These solved cases illustrate the format of a correct answer.
C[C@@H]1CN[C@@H](C)CN1c1cc(C(F)(F)F)cc(-c2ccnc3c2C(C)(C)C(=O)N3)n1 ... Met
C[C@@H]1CNCCN1c1cc(Cl)cc(-c2ccnc3c2C(C)(C)C(=O)N3)n1 ... Not met
C[C@@H]1CN(c2cc(-c3ccnc4c3C(C)(O)C(=O)N4)cc(C(F)(F)F)c2)CCN1 (some centres unmarked) ... Met
C[C@@H]1CCNCCN1c1cc(C(F)(F)F)cc(-c2ccnc3c2C(C)(C)C(=O)N3)n1 ... Met
C[C@H]1NCCN(c2cc(C(F)(F)F)cc(-c3ccnc4c3C(C)(C)C(=O)N4)n2)[C@H]1C [Example 168] ... Met
CC1(C)C(=O)Nc2nccc(-c3cccc(C4(CO)CCNC4)c3)c21 (centres unmarked) ... Not met
C[C@H]1CNCCN(c2cc(C(F)(F)F)cc(-c3ccnc4c3C(C)(C)C(=O)N4)n2)C1 ... Met

Answer whether PKC-theta/PKC-delta selectivity of CC1(C)C(=O)Nc2nccc(-c3cccc(N4CCNC(Cc5cccnc5)C4)c3)c21 (centres unmarked) is greater than or equal to 10.
Not met

====

- system_tested: Recombinant human PKC-theta (His-tagged 362-706) (Homo sapiens)
- Construct: Recombinant human PKC-theta (His-tagged 362-706); His
- test_details: PKC-theta inhibition assay (HTRF KinEASE kit)
- Type: biochemical
- condition_notes: ATP 6.5 μM; STK substrate 525 nM; read-out: PKC-theta HTRF pIC50 (converted)
Simple rule here: IC50 less than 5 nM is Met, otherwise Not met.

CC[C@@]1(O)C(=O)Nc2nccc(-c3cc(Cl)cc(N4CCN[C@@H](C)C4)n3)c21 (single isomer, unassigned) ... Not met
CC1(C)C(=O)Nc2nccc(-c3cccc(N(CC4COC4)C4CCCNC4)c3)c21 (stereo not drawn) ... Not met
CC1(C)C(=O)Nc2nccc(-c3cccc(C4(CO)CCNC4)c3)c21 (stereo not drawn) ... Not met
CC1(C)C(=O)Nc2nccc(-c3cccc(N(CC4COC4)C4CCNCC4)c3)c21 ... Not met
CC[C@@]1(C)C(=O)Nc2nccc(-c3cc(C(C)(F)F)cc(N4CCCNCC4)n3)c21 (single isomer, unassigned) ... Not met
O=c1[nH]c2nccc(-c3cc(N4CCNCC4)ccn3)c2[nH]1 ... Not met
C[C@@H]1CNCCN1c1cc(C(F)(F)F)cc(-c2ccnc3c2C(C)(C)C(=O)N3)n1 ... Met
C[C@H]1CN(c2cc(-c3ccnc4c3[C@@](C)(O)C(=O)N4)cc(C(F)(F)F)c2)CCN1 (single isomer, unassigned) [Example 82] ... Not met

Please determine if CC[C@]1(C)C(=O)Nc2nccc(-c3cc(C(C)(F)F)cc(N4CCCNCC4)n3)c21 (single isomer, unassigned) is below 5 nM in terms of IC50.
Met

Please determine if C[C@H]1CN(c2cc(Cl)cc(-c3ccnc4c3C(C)(O)C(=O)N4)n2)CCN1 (stereo partly drawn) is below 5 nM in terms of IC50.
Met
